Tested on: Mus musculus
PROCEDURE TEXT: Antitumor activity against ip implanted P388 leukemia in mouse after ip administration of 5 mg/kg for 5 days expressed as increase in mean life span
Assay type: functional
CONDITION: 120 h, route intraperitoneal
Items are presented alongside their recorded ILS at 5 mg/kg.
Number in %, nothing else.

Would you mind telling me what ILS at 5 mg/kg value was observed for Cc1c2cc[n+]([C@H]3O[C@@H](C)[C@@H](O)[C@@H](O)[C@@H]3O)cc2c(C)c2c1[nH]c1ccc(O)cc12.[Br-] (stereo in doubt; 56) ?
109

Would you mind telling me what ILS at 5 mg/kg value was observed for Cc1c2cc[n+]([C@@H]3O[C@H](CO)[C@H](O)[C@@H]3O)cc2c(C)c2c1[nH]c1ccc(O)cc12.[Cl-] (stereo in doubt; 43a) ?
158
